Data origin, for the record: ChEMBL document CHEMBL1806470

experiment: Antiglycation activity assessed as inhibition of dicarbonyl compounds formation
Assay type: physicochemical
measured-metric: pIC50
Just the number, please; pIC50 means minus log10 of the concentration in mol/L.

Consider COc1c(O)cc2c(c1O)[C@@H]1O[C@H](COC(=O)c3cccc(O)c3O)[C@@H](O)[C@H](O)[C@H]1OC2=O . Its measured pIC50 is 5.05

----------
experiment: Antiglycation activity assessed as inhibition of advanced glycation end product formation at 200 uM
Format: physicochemical
Please provide measured inhibition (INH) for the entries that follow.
// note: answer is a bare numeric in %

Consider COc1c(O)cc2c(c1O)[C@@H]1O[C@H](COC(=O)c3cccc(O)c3O)[C@@H](O)[C@H](O)[C@H]1OC2=O . Its measured inhibition (INH) is 93.27

Consider COc1c(O)cc2c(c1O)[C@@H]1O[C@H](CO)[C@@H](O)[C@H](O)[C@H]1OC2=O [BERGENIN] . Its measured inhibition (INH) is 75.69
